Assay: yeast display, Sf9 membrane polyspecificity reagent, FACS + sequencing; frameworks hold sequencing errors
Parameter measured: polyreactivity (PSR sort gate)

Solved entries (count: 4):
>>> recorded_result("QVQLVESGGGLVQAGGSLRLSCAASGSTFYANLMGWYRQAPGKEWEFVAAIDGSGGRTYYADSVKGRFTISRDNAKNTVYLQMNSLKPEVTAVYYCAKKRIVPVIQFGRDYNYWGQGKQVTVSS")
"high polyreactivity"
>>> recorded_result("QVQLVESGGGLVQAGGSLRLSCAASGRTSRDYAMGWYRQAPGKERELVAAIRWRGVSTYYADSVKGRFTISRDNAKNTVYLQMNSLKPEDTAVYYCAKRESVSTSAGKGAMDSWGQGTQVTVSS")
"high polyreactivity"
>>> recorded_result("QVQLVESGGGLVQAGGSLRLSCAASGRTFSRNAMGWYRQAPGKERELVAAISQSGGRTYYADSVKGRFTISRDNAKNTVYLQMNSLKPEDTAVYYCAAAGTRKALTEYDYWGQGTQVTLSS")
"high polyreactivity"
>>> recorded_result("QVQLVESGGGLVQAGGSLRLSCAATGRIFYSNAMGWYRQAPGKERELVAVIRRTGSTYYADSVKGRFTISRDNAKHTVYLQMNSLKPEDTAVYYCATRIPYGRGGNRYDYWGQGTQVTVSS")
"low polyreactivity"

# input for lookup
## Task Fill blank: measured polyreactivity (PSR sort gate) of the sequence QVQLVESGGGLVKAGGSLRLSCAASGSTFERYAMGCYRQAPGKEMELVAAINWSGGGTYYADSVKGRFTISRDNAKNTVYLQMNSLKPVDTAVYYCAADSGTVVFSLWWYEYYYWGQGTQVTVSS is ____.
## Result low polyreactivity

###

Experiment: yeast display, Sf9 membrane polyspecificity reagent, FACS + sequencing; frameworks hold sequencing errors
Parameter measured: polyreactivity (PSR sort gate)

Example entries and their recorded answers appear below.
>>> recorded_result("QVQLVESGGGLVQAGGSLRLSCAASGRTFVGNTMGWYRQAPGKERELVAAISSGGRTYYADSVKGRFTISRDNAKNTVYLQMNSLKPEDTAVYYCAARRRGKVVPTSQFDYWGQGTQVTVSS")
"high polyreactivity"
>>> recorded_result("QVQLVESGGGLVEAGGSLRLSCAASGSIFSYNAMGWYRQAPGKERELVAAITDGGDRTYYADSVKGRFTISRDNAKNTVYLLMNSLIPEATAVYYCAAELYSYREDYGAHFAYEYWGQGTQVTVSS")
"low polyreactivity"
>>> recorded_result("QVQLVESGVGLVQAGGSLLLSCAASGRTFSYNPMGSYRQAPGKERELVALISSGGSTNYADSVKGRFTISRDNAKNTVYLQMNSLKPEDTALYYCNAGSYVWEEDYWGQGTQVTVSS")
"high polyreactivity"
>>> recorded_result("QVQLVESGGGLVQAGGSLRLSCAASGITFNRNAMGWYRQAPGKERELVAAISSDGNTNYADSVKGRFTISRDNAKNTVYLQMNSLKPEDTAVYYCAAPVIQITDVWYDAETYPDYDYWGQGTQVTVSS")
"low polyreactivity"

Moving on to the next sequence.
## Task Look up polyreactivity (PSR sort gate) for this sequence: QVQLVESGGGLVQAGGSLRLSCAASGSIFGDYAMGWYRQAPGKERELVAGITQSGSSTYYADSVKGRFTISRDNAKNTVYLQMNSLKPEDTAVYYCNKDWGPGPNEFDYWGQGTQVTVSS
## Result low polyreactivity
